# maps each entry to its log10(TGI)
test system: RXF 393 renal; test: NCI tumour cell line growth inhibition, 48 h
Parameter: log10(TGI) (log10 of the value in µM)

[
  {
    "Molecule": "C=C1C(=O)OC2C3OC(C)(CCC(O)C3COC(C)=O)CC(OC(=O)/C(=C/C)COC(C)=O)C12 (centres undefined)",
    "Target or test system": "RXF 393 renal",
    "log10(TGI)": -0.29
  },
  {
    "Molecule": "Cn1nc(-c2ccccc2)c(C(=O)/C=C/c2ccc(Cl)cc2)c(N2CCCC2)c1=O",
    "Target or test system": "RXF 393 renal",
    "log10(TGI)": 0.93
  },
  {
    "Molecule": "COc1cccc(NC2=C(Cl)C(=O)N(Cc3ccc(Cl)cc3)C2=O)c1",
    "Target or test system": "RXF 393 renal",
    "log10(TGI)": 0.80
  },
  {
    "Molecule": "COc1ccc(C2=NC(c3ccc(Cl)cc3)C(c3ccc(Cl)cc3)N2C(=O)N2CCNC(=O)C2)c(OC(C)C)c1 (centres undefined)",
    "Target or test system": "RXF 393 renal",
    "log10(TGI)": 0.84
  },
  {
    "Molecule": "O=C(CCCCCCCCC(=O)N/N=C\\c1cc(Cl)ccc1O)N/N=C\\c1cc(Cl)ccc1O",
    "Target or test system": "RXF 393 renal",
    "log10(TGI)": 0.89
  },
  {
    "Molecule": "CC(=O)[C-](C(C)=O)c1ccccc1.CC(=O)[C-](C(C)=O)c1ccccc1.CC(=O)[C-](C(C)=O)c1ccccc1.[Cl-].[Zr+4]",
    "Target or test system": "RXF 393 renal",
    "log10(TGI)": 1.99
  },
  {
    "Molecule": "COc1cc(-c2cc(=O)c3c(O)c(OC)c(OC)c(OC)c3o2)cc(OC)c1OC",
    "Target or test system": "RXF 393 renal",
    "log10(TGI)": 1.52
  },
  {
    "Molecule": "C=C1CC2[C@H](C)C(=O)CCC2(C)C2=C1C1CCC(C(C)CCC(=C)C(C)C(=O)O)C1(C)CC2=O (some centres undefined)",
    "Target or test system": "RXF 393 renal",
    "log10(TGI)": 1.94
  },
  {
    "Molecule": "C=C(C)[C@@H]1CC[C@]2(CO)CC[C@]3(C)[C@H](CC[C@@H]4[C@@]5(C)CC[C@H](NCO)C(C)(C)[C@@H]5CC[C@]43C)[C@@H]12",
    "Target or test system": "RXF 393 renal",
    "log10(TGI)": 0.20
  },
  {
    "Molecule": "CCN(CC)Cc1cc(Nc2c3ccccc3nc3cc(Cl)ccc23)ccc1O",
    "Target or test system": "RXF 393 renal",
    "log10(TGI)": 0.41
  },
  {
    "Molecule": "CC(/C=N/N=C(N)N)=N\\N=C(N)N",
    "Target or test system": "RXF 393 renal",
    "log10(TGI)": 2.87
  }
]

---

tested on: SNB-19 CNS; assay: NCI tumour cell line growth inhibition, 48 h
Where a SMILES comes first, the peptide text is derived from it. The star is where a group is joined. Trt = c1ccc(C(c2ccccc2)(c2ccccc2)*)cc1; Cbz = O=C(OCc1ccccc1)*
compounds and their reported GI50

[
  {
    "Compound": "COC(=O)C(CSC(c1ccccc1)(c1ccccc1)c1ccccc1)NC(=O)C(CC(N)=O)NC(=O)OCc1ccccc1 (stereo not drawn) (Cbz-Asn-Cys(Trt)-OMe; configuration not given here)",
    "Target or test system": "SNB-19 CNS",
    "GI50": "5.22 µM"
  },
  {
    "Compound": "Cc1c(Cl)c(C)c(Cc2c(C)c(Cl)c(C)c(Cl)c2O)c(O)c1Cl",
    "Target or test system": "SNB-19 CNS",
    "GI50": "3.15 µM"
  },
  {
    "Compound": "O=C(CCCCCCCCC(=O)N/N=C\\c1cc(Cl)ccc1O)N/N=C\\c1cc(Cl)ccc1O",
    "Target or test system": "SNB-19 CNS",
    "GI50": "0.813 µM"
  },
  {
    "Compound": "Cc1cc2nc3c4ccc(Br)cc4n(CCN(C)C)c3nc2cc1C",
    "Target or test system": "SNB-19 CNS",
    "GI50": "1.6 µM"
  }
]
